- Experimental Protocol: NCI Yeast Anticancer Drug Screen. Data for the wt2 strain (AID 169);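 further: 0% = growth of vehicle-treated yeast cultures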
- Condition Info: S. cerevisiae wt2 strain growth inhibition; at 3.7 µM; stronger effect = higher value
This is part of a sample that, as a whole, favours compounds with a hit. Of some 79,000 tested, about 15% had one in any assay.
Readout Label: growth inhibition (%)
Expressed in %, but write only the number.

Task: Answer with the recorded growth inhibition for the compound listed here: COc1cc(NCc2ccc3nc(N)nc(N)c3c2C)cc(OC)c1OC
Result: -5

Further cases:
Task: Supply measured growth inhibition of NC(=O)N1c2ccccc2C=Cc2ccccc21 in your reply.
Result: -30

====

- Experimental Protocol: NCI Yeast Anticancer Drug Screen. Data for the CLN2oe strain (AID 163);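 further: 0% = growth of vehicle-only control cultures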
- Condition Info: S. cerevisiae CLN2oe strain, at 33.0 µM, stronger effect = higher value
Compounds without any hit were thinned out: in the full panel of roughly 79,000, 15% have a hit.
Readout Label: growth inhibition (%)
Reply with just the number (in %).

Here is how some molecules turned out for growth inhibition.
Task: Quick one: give measured growth inhibition for CCCCCC#CCOC(=O)C(=[N+]=[N-])P(=O)(c1ccccc1)c1ccccc1
Result: -1

Task: Supply recorded growth inhibition for COc1ccc(SCc2cc(OC)ccc2OC)cc1 here.
Result: -8

Task: Fill in reported growth inhibition for this entry: O=C1c2cccc3cc([N+](=O)[O-])cc(c23)C(=O)N1CCN1CCCC1
Result: 39

Task: State its growth inhibition: C=Cc1cnc([N+](=O)[O-])n1C
Result: 33

Task: Complete the entry with growth inhibition for CC(=O)N1C(=O)/C(=C\C(=O)c2ccc([N+](=O)[O-])cc2)c2ccccc21
Result: 51

Task: For the molecule S=c1[nH]nc(-c2ccc(Cl)cc2)s1 , report growth inhibition.
Result: 55

Continuing:
Task: Provide one value: measured growth inhibition of CC1=CCCC2C1(C)CCC(C)C2(C)Cc1cc(O)ccc1O (configuration not stated)
Result: 97

Task: Provide one value: measured growth inhibition of O=C1C=CC(=Nc2ccccc2)c2ccccc21
Result: 43

Task: Consider the molecule N#C/C(=C/N1C(=O)/C(=C/c2ccc([N+](=O)[O-])cc2)SC1=S)c1nc2ccccc2s1 . State its measured growth inhibition.
Result: 16

Task: Respond only with growth inhibition recorded for Cc1cc(C(C)(C)CC(C)(C)C)cc(O)c1O
Result: 97

Task: Give the measured growth inhibition for Cc1ccc(N=Nc2ccc(O)c(C)c2)cc1
Result: 97

Task: Recall and state the measured growth inhibition for NCc1c(O)ccc2ccccc12 .
Result: 18

Task: Provide one value: measured growth inhibition of N#CSC1CCCCNC1=O (configuration not stated)
Result: 44

Task: Output measured growth inhibition for this item: O=C(NCCCCCN1CCC2(CCCCC2)CC1)C(C1CCCCC1)C1CCCCC1
Result: 99

====

Entries annotated with measured growth inhibition
- Experimental Protocol: NCI Yeast Anticancer Drug Screen. Data for the mec2-1 strain (AID 157)
- Condition Info: S. cerevisiae mec2-1 strain, at 50.0 µM (retest, dose inferred, filed as 5.0), stronger effect = higher value
This is part of a sample that, as a whole, favours compounds with a hit. Of some 79,000 tested, about 15% had one in any assay. Activity calls are given as the source filed them. Rule as the data show it: active = growth inhibition above about 70%; inactive = the rest.

Solved cases (5 shown):
Task: Name the recorded growth inhibition of the compound listed here: C/C=C/[P+](c1ccccc1)(c1ccccc1)c1ccccc1
Result: 63% (inactive)

Task: Output measured growth inhibition for this item: Clc1cc(-c2ccccc2)nc2ccccc12
Result: 92% (active)

Task: Note down growth inhibition recorded for CCCCC(=O)c1c(O)nc2sccn2c1=O
Result: 88% (active)

Task: Return reported growth inhibition. Input compound: c1ccc2c(c1)ccc1c3ccncc3ccc21
Result: 95% (active)

Task: For the compound CSc1s[s+]c(SC)c1-c1ccccc1 , give its measured growth inhibition value.
Result: 52% (inactive)

Next:
Task: Supply measured growth inhibition of CNc1ccc(Cc2c[nH]c3ccccc23)cc1 in your reply.
Result: 86% (active)

Task: Using known records, supply growth inhibition for O=S(=O)(N/N=C/c1cccc(Cl)c1)c1ccccc1
Result: 66% (inactive)

Task: Retrieve growth inhibition measured for CC1(C)C(C=O)=CCC1CC(N)=O (stereo unspecified) and print it.
Result: 39% (inactive)

====

- Experimental Protocol: NCI Yeast Anticancer Drug Screen. Data for the mec2-1 strain (AID 157)
- Condition Info: S. cerevisiae mec2-1 strain, at 50.0 µM (retest, dose inferred, filed as 5.0), stronger effect = higher value
Compounds without any hit were thinned out: in the full panel of roughly 79,000, 15% have a hit.
Readout Label: growth inhibition (%)
Answer format: numeric, % implied, no suffix.

Reference set, count: 5
Task: Provide growth inhibition value for the following compound: CC(=O)C1(O)Cc2c(O)c3c(c(O)c2C(OC2CC(N)C(O)C(C)O2)C1)C(=O)c1ccccc1C3=O (stereo unspecified)
Result: 47

Task: Query growth inhibition for O=C1C=CC(=O)N1c1ccc(I)cc1
Result: 65

Task: Identify measured growth inhibition associated with CCOC(=O)C1=C(C)NC(C)=C(C(=O)OCC)C1c1ccccc1Cl
Result: 99

Task: Give recorded growth inhibition. Cc1onc(-c2ccccc2Cl)c1C1=N/C(=C/c2cc(Cl)cc(Cl)c2O)C(=O)O1
Result: 90

Task: Return growth inhibition for the following compound: CC(=O)CC(=O)/C=C/c1cccs1
Result: 99

Let us examine a further case.
Task: State, in one line, measured growth inhibition of Cc1ccc2c(ccc(/C=C/c3ccc(O)c4ncccc34)[n+]2C)c1
Result: 94

====

- Experimental Protocol: NCI Yeast Anticancer Drug Screen. Data for the wt1 strain (AID 149);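 further: 0% = growth of vehicle-treated wt1 cultures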
- Condition Info: S. cerevisiae wt1 strain (SPY 50644) growth inhibition; at 11.0 µM
The panel holds about 79,000 compounds, 15% with a hit somewhere; the sample as a whole holds those more often. The source made the active and inactive calls. No stated cut-off is given here; in the data, active means growth inhibition above about 70%; inactive means the rest.
Entry note: the call must match one of active, inactive

# count of solved cases: 2
Task: Kindly provide the recorded test outcome for the following molecule: N#Cc1sc2c(c1OC(=O)c1ccco1)c(=O)n(-c1ccccc1)c(=S)n2-c1ccccc1
Result: inactive

Task: Which outcome was entered for the molecule CCCCCC(=O)c1ccc(O)cc1O in this test?
Result: inactive

Field: next molecule
Task: Entry CCCCCC#CCOC(=O)C(=[N+]=[N-])P(=O)(c1ccccc1)c1ccccc1 : call = ?
Result: inactive

====

Reported growth inhibition values follow for various compounds
- Experimental Protocol: NCI Yeast Anticancer Drug Screen. Data for the wt1 strain (AID 149);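 further: 0% = growth of vehicle-treated wt1 cultures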
- Condition Info: S. cerevisiae wt1 strain (SPY 50644) growth inhibition; at 1.2 µM; stronger effect = higher value
The panel holds about 79,000 compounds, 15% with a hit somewhere; the sample as a whole holds those more often.
Provide the reading as a plain figure in %.

Record excerpt, results attached:
Task: Quick one: give measured growth inhibition for COc1ccc(N2C(=O)CC(Cl)C2=O)cc1 (stereo not given)
Result: -1

Task: Quickly give me recorded growth inhibition for O=C1c2ccccc2CCC1(Br)Br
Result: 1

Task: Give the reported growth inhibition for this compound. OB(O)c1ccccc1C#Cc1ccccc1B(O)O
Result: -2

Task: Given S=P(N1CC1)(N1CC1)N1CC1 , respond with its growth inhibition.
Result: -3

Further cases:
Task: # return recorded growth inhibition for entry O=C1C=CC(=Nc2ccccc2)c2ccccc21
Result: 8

====

- Experimental Protocol: NCI Yeast Anticancer Drug Screen. Data for the wt1 strain (AID 149);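 further: 0% = growth of vehicle-treated wt1 cultures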
- Condition Info: S. cerevisiae wt1 strain (SPY 50644) growth inhibition; at 1.2 µM; stronger effect = higher value
Compounds without any hit were thinned out: in the full panel of roughly 79,000, 15% have a hit.
growth inhibition by entry:
The reply should be a number in %, with the unit left off.

Task: For the compound CC(=O)C1=C(O)C2(C)c3c(O)c(C)c(O)c(C(C)=O)c3OC2(Sc2ccccc2)CC1=O (stereo not given) , report growth inhibition.
Result: 21

Task: Give a short answer stating reported growth inhibition for Nc1ccc2c(c1)sc1ccccc12 .
Result: -5

====

- Experimental Protocol: NCI Yeast Anticancer Drug Screen. Data for the mgt1 strain (AID 153)
- Condition Info: S. cerevisiae mgt1 mutant growth inhibition; at 3.7 µM
About 79,000 compounds went through this panel and 15% of them were active in at least one assay; those are over-represented in the sample as a whole. Activity calls are given as the source filed them. Rule as the data show it: active = growth inhibition above about 70%; inactive = the rest.
I would appreciate it if you answered using one of these outcomes: T for active, F for inactive

Consider the worked cases shown below.
Task: What was the test verdict on NCc1c(O)ccc2ccccc12 ?
Result: F

Task: What was the test verdict on CN(N=O)C(=O)N[C@@H](C=O)[C@@H](O)[C@H](O)[C@H](O)CO ?
Result: F

Task: Which outcome was assigned to O=C1NC(c2c(Cl)cccc2Cl)Nc2ccccc21 (stereo not drawn) in this test?
Result: F

Task: Name the outcome recorded for ClCCn1c(CCl)nc2ccc(Cl)cc21 in the assay.
Result: F

Task: Answer briefly: the call reported for CC1=CCC(C(C)(C)c2ccc(O)cc2)CC1 (stereo not drawn) in this assay.
Result: F

Continuing:
Task: What is the recorded call for this molecule in the test? CC1CCC2(C(=O)O)CCC3(C)C(=CCC4C5(C)CC(O)C(O)C(C)(CO)C5C(O)CC43C)C2C1C (stereo not drawn)
Result: F

Task: What did the test return for Clc1c(Cl)c(Cl)c2n[nH]nc2c1Cl ?
Result: F

Task: Could you check what this test reported for O=S(=O)(c1cc(Cl)ccc1O)c1cc(Cl)ccc1O ?
Result: T
